Source of measurements: patent US20240067748A1

- test system: T1, monkey Trop2 protein (Sino Biological, #90893-C08H) (monkey, UniProt A0A2K5UE71 27-274)
- T1 construct: bought protein; also called monkey Trop2 protein antigen (His tag)
- T1 sequence: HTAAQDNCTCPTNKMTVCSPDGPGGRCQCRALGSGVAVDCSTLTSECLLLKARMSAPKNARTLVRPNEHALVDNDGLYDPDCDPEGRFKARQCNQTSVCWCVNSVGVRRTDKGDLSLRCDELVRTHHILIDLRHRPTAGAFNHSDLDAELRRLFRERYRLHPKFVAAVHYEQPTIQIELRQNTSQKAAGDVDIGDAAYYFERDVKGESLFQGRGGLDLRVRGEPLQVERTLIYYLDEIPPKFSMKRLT
- assay details: BLI, Octet RED96, AHC sensor
Each entry below lists one item and its recorded koff value.

- binder: "PR001170 (antibody, human IgG1, kappa, V domains shown, fully human IgG1/kappa; also called antibody No. (29)) VH: QVQLQESGPGLVKPSETLSLTCAVSGYSINSGYFWAWIRQPPGMGLEWIGSIYHSGRTHYNPSLKSRVIISLDTSKNQFSLKLRSVTAADSAVYYCAREGYASGSYYWGQGTLVTVSS VL: EIVMTQSPATLSVSPGERATLSCRSSQSVNSYLAWFQQKPGQAPRLLIYDSSTRATGIPARFSGSGSGTEFTLTISSLQSEDFAFYFCQQYENWPLTFGGGTKVEIKR"
  units label: "s⁻¹"
  bound sign: "<"
  koff: "1e-07"
- binder: "PR001171 (antibody, human IgG1, kappa, V domains shown, fully human IgG1/kappa; also called antibody No. (30)) VH: QVQLVESGGGVVQPGRSLRLSCAASGFTFSHYGMHWVRQAPGKGLEWVAVIWYDGIKKNYVESVKGRFTISRDNSKNTLNLQMNRLRAEDTAVYYCARDGGFGESNYYGLDVWGQGTTVTVSS VL: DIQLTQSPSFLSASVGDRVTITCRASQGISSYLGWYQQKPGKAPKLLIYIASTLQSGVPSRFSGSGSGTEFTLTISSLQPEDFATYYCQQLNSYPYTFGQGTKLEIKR"
  units label: "s⁻¹"
  bound sign: "="
  koff: "1.34e-05"
- binder: "PR001168 (antibody, human IgG1, kappa, V domains shown, fully human IgG1/kappa; also called antibody No. (28)) VH: QVQLVESGGGVVQPGRSLRLSCATSGFIFSSYGMHWVRQAPGKGLDWVAVIWYDGSNKYYADSVKGRFTISRDNSKNTLYLQMNSLRVEDTAVYYCARETSSWYVGYLQHWGQGTLVTVSS VL: EIVMTQSPATLSVSPGERVSLSCRASQSVNGNVAWYQQKPGQAPRLLIYAASTRATGIPARFSGSGSGTESTLTISSLQSEDCAVYYCQQYNNWPSTFGPGTKLEVTR"
  units label: "s⁻¹"
  bound sign: "="
  koff: 0.000145
- binder: "PR001165 (antibody, human IgG1, kappa, V domains shown, fully human IgG1/kappa; also called antibody No. (26)) VH: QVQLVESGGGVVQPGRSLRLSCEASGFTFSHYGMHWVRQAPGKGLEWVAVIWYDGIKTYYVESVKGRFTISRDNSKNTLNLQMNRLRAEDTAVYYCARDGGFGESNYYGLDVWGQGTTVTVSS VL: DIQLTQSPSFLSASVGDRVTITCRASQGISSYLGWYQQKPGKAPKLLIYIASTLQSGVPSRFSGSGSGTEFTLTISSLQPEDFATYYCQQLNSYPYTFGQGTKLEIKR"
  units label: "s⁻¹"
  bound sign: "="
  koff: "2.62e-05"
- binder: "PR001130 (antibody, human IgG1, kappa, V domains shown, fully human IgG1/kappa; also called antibody No. (2)) VH: QVQLQESGPGLVKPSGTLSLTCAVSGDSISSHNWWSWVRQPPGKGLEWIGEIYHSGITSYNPSLKSRVTISVDKSKNQFSLKLNSVTAADTAMYYCARGSGVISYFDYWGQGTLVTVSS VL: DIQMTQSPSTLSASVGDRVTITCRASQSIGNWLAWYQQKPGKAPKLLIYKASSLESGVPSRFSGSGSGTEFTLTISSLQPDDFATYYCQQYDSYSPITFGQGTRLEIKR"
  units label: "s⁻¹"
  bound sign: "<"
  koff: "1e-07"
